Entries and their pIC50 values follow.
# tgt: human P2X3 receptor (Homo sapiens (Human))
# Sequence (P56373 whole entry): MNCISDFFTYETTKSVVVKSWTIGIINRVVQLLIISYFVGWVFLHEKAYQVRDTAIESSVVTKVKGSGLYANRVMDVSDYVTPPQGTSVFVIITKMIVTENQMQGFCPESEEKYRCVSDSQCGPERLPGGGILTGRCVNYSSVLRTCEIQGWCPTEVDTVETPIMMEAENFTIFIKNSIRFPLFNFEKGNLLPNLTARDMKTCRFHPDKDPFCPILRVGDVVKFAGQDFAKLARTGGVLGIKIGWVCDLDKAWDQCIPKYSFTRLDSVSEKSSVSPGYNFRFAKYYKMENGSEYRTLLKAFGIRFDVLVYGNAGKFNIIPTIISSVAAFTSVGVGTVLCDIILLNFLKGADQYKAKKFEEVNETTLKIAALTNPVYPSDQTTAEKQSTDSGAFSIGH
# assay procedure: P2X3 receptor inhibition, ATP-evoked Fluo-3 calcium fluorescence (FDSS 3000)
# measurement context: C6BU-1 cell transfected with human P2X3 receptor gene; ATP-evoked Fluo-3 fluorescence
pIC50 is defined as minus the log10 of a concentration measured in mol/L.

# count of solved cases: 6
molecule	tgt	obs value
COCCOc1ccccc1[C@@H]1C(C(=O)C(C)C)=C(O)C(=O)N1c1ccc(-c2ccoc2)cc1 [Compound I-208]	human P2X3 receptor (Homo sapiens (Human))	7.85
COc1ncccc1C1c2c(C(C)(C)C)n[nH]c2C(=O)N1c1ccc(-c2ccsc2)cn1 (stereo not shown) [II-262]	human P2X3 receptor (Homo sapiens (Human))	7.41
Cc1cc(-c2ccc(N3C(=O)C(O)=C(C(=O)CC(C)C)C3c3ccccc3OC(F)F)cc2)cs1 (stereo not shown) [Compound I-377]	human P2X3 receptor (Homo sapiens (Human))	6.83
CNC(=O)COc1ccccc1C1c2c(C(C)(C)C)n[nH]c2C(=O)N1c1ccc(-c2ccon2)cc1 (stereo not shown) [II-077]	human P2X3 receptor (Homo sapiens (Human))	6.63
CCOCOc1ccccc1C1C(C(=O)C(C)C)=C(O)C(=O)N1c1ccc(-c2ccon2)cc1 (stereo not shown) [Compound I-543]	human P2X3 receptor (Homo sapiens (Human))	6.62
COCCOc1ccccc1C1C(C(=O)CC(C)C)=C(O)C(=O)N1c1ccc(SC)cc1 (stereo not shown) [Compound I-435]	human P2X3 receptor (Homo sapiens (Human))	7.09

Consider now this further molecule.
Query for human P2X3 receptor (Homo sapiens (Human)): what pIC50 does the record show for COCc1ccccc1[C@@H]1C(C(=O)C(C)C)=C(O)C(=O)N1c1ccc(-c2cccs2)cc1 [Compound I-394] ? 7.96
